Catalogue of variants with associated self-cleavage
B1: CPEB3 Ribozyme (parent)
chain: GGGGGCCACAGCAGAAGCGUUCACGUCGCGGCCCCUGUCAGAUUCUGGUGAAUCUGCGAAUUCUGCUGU

Variants of: B1
Test: self-cleavage, relative activity (ratio to wild type); higher = more cleavage; co-transcriptional
Give the value as a plain number.

Challenge: Return value of self-cleavage for input C12A C27A , no commentary.
Response given: 0.145
